# PARTICULARS: in ethyl acetate, 323.15 K
MEASURED ENDPOINT: solubility (mole fraction)

A. COc1cc(C=O)ccc1O
B. O=C(O)/C=C/c1ccc(O)cc1
[ask] Between item A and item B , which reported solubility (mole fraction) is smaller? Identify your pick by its label.
[reply] B

====

# PARTICULARS: in ethanol, 303.15 K
MEASURED ENDPOINT: solubility (mole fraction)

1. COc1cc(C=O)ccc1O
2. O=C(O)/C=C/c1ccc(O)cc1
[ask] Between item 1 and item 2 , which reported solubility (mole fraction) is smaller? Identify your pick by its label.
[reply] 2

====

# PARTICULARS: in ethanol, 288.15 K
MEASURED ENDPOINT: solubility (mole fraction)

P. O=C(O)/C=C/c1ccc(O)cc1
Q. COc1cc(C=O)ccc1O
[ask] Pick one: P or Q . Which has the bigger solubility (mole fraction) number? Identify your pick by its label.
[reply] Q
